Values were extracted from patent US5496947A.

Consider the following molecules and their measured Cmax readings.
- Assay Text: Pharmacokinetic properties in ICR mouse, oral and subcutaneous, Bio-Assay (Agar well method)
- Format: in vivo
- Assay Context: blood, po, P.O, 40 mg/kg, average of four tests
# number only, unit ng/mL dropped from output

Completed entries (count: 5):
{"Molecule": "CC1COc2c(N3CCN(C)CC3)c(F)cc3c(=O)c(C(=O)O)cn1c23 (stereo not drawn) [Ofloxacin, reference compound]", "Unit": "ng/mL", "Cmax": 9410}
{"Molecule": "Cc1c(F)c(N2CCN(C)CC2)cc2c1c(=O)c(C(=O)O)cn2-c1ccc(F)cn1.Cl [Example 28]", "Unit": "ng/mL", "Cmax": 6360}
{"Molecule": "CN1CCN(c2nc3c(cc2F)c(=O)c(C(=O)O)cn3-c2ccc(F)cn2)CC1.Cl [Example 13]", "Unit": "ng/mL", "Cmax": 11500}
{"Molecule": "CC1CN(c2cc3c(cc2F)c(=O)c(C(=O)O)cn3-c2ccc(F)cn2)CCN1.Cl (stereo not drawn) [Example 19]", "Unit": "ng/mL", "Cmax": 3110}
{"Molecule": "CN1CCN(c2cc3c(cc2F)c(=O)c(C(=O)O)cn3-c2ccc(F)cn2)CC1.Cl [Example 18]", "Unit": "ng/mL", "Cmax": 9180}

Record CC1CN(c2nc3c(cc2F)c(=O)c(C(=O)O)cn3-c2ccc(F)cn2)CCN1.Cl (stereo not drawn) [Example 14] . Reported Cmax: 2120

* * *

In what follows, each item is paired with its MIC for Streptococcus faecalis ATCC 19433.
All answers are understood in µg/mL, so give the number only.

{"Molecule": "Cc1c(F)c(N2CCNC(C)C2)cc2c1c(=O)c(C(=O)O)cn2-c1ccc(F)cn1.Cl (stereo not shown)", "Unit": "µg/mL", "MIC": 5}
{"Molecule": "CC1CN(c2nc3c(cc2F)c(=O)c(C(=O)O)cn3-c2ccncc2F)CCN1.Cl (stereo not shown)", "Unit": "µg/mL", "MIC": 2.5}
{"Molecule": "CC1CN(c2nc3c(cc2F)c(=O)c(C(=O)O)cn3-c2ccc(F)cn2)CC(C)N1.Cl (stereo not shown)", "Unit": "µg/mL", "MIC": 5}

Let us examine a further case.
The measured MIC that `CN1CCN(c2nc3c(cc2F)c(=O)c(C(=O)O)cn3-c2ccc(F)cn2)CC1.Cl` showed for Streptococcus faecalis ATCC 19433 is 5

* * *

- Assay Text: Pharmacokinetic properties in ICR mouse, oral and subcutaneous, Bio-Assay (Agar well method)
- Type: in vivo
- Assay Context: blood, sc, S.C, 40 mg/kg, average of four tests
Recorded Cmax values for a group of compounds are listed next.
Respond with the figure and its unit, in that order.

Consider CN1CCN(c2nc3c(cc2F)c(=O)c(C(=O)O)cn3-c2ccc(F)cn2)CC1.Cl [Example 13] . Its measured Cmax is 8000 ng/mL

Lab note: Cc1c(F)c(N2CCN(C)CC2)cc2c1c(=O)c(C(=O)O)cn2-c1ccc(F)cn1.Cl [Example 28] gave Cmax of 6940 ng/mL

What the record says about CC1CN(c2cc3c(cc2F)c(=O)c(C(=O)O)cn3-c2ccc(F)cn2)CCN1.Cl (stereo not shown) [Example 19] : Cmax is 5110 ng/mL

* * *

- Assay Text: Pharmacokinetic properties in ICR mouse, oral and subcutaneous, Bio-Assay (Agar well method)
- Format: in vivo
- Assay Context: blood, sc, S.C, 40 mg/kg, average of four tests
Measured Attribute: AUC (ng·h/mL)
Express it in ng·h/mL; write the number only.

The following molecules have reported results that may help.
{"Molecule": "Cc1c(F)c(N2CCN(C)CC2)cc2c1c(=O)c(C(=O)O)cn2-c1ccc(F)cn1.Cl", "AUC (ng·h/mL)": 76100}
{"Molecule": "CC1COc2c(N3CCN(C)CC3)c(F)cc3c(=O)c(C(=O)O)cn1c23 (stereo not drawn) [Ofloxacin, reference compound]", "AUC (ng·h/mL)": 14200}

Here's the next entry for you.
# AUC of `CN1CCN(c2nc3c(cc2F)c(=O)c(C(=O)O)cn3-c2ccc(F)cn2)CC1.Cl` = 55500

* * *

The reader will find MIC measurements below, all made with Streptococcus faecalis ATCC 19433.
Write the answer as a number in µg/mL, unit excluded.

In the examples that follow, each entry is paired with its recorded MIC.
{"Compound": "Cl.NC1CCN(c2cc3c(cc2F)c(=O)c(C(=O)O)cn3-c2ccncc2F)C1 (stereo not shown)", "Measured Attribute": "MIC", "Unit": "µg/mL", "Reported Result": 2.5}
{"Compound": "Cl.O=C(O)c1cn(-c2ccc(F)cn2)c2c(F)c(N3CCNCC3)c(F)cc2c1=O", "Measured Attribute": "MIC", "Unit": "µg/mL", "Reported Result": 5}
{"Compound": "Cc1c(F)c(N2CCN(C)CC2)cc2c1c(=O)c(C(=O)O)cn2-c1ccc(F)cn1.Cl", "Measured Attribute": "MIC", "Unit": "µg/mL", "Reported Result": 10}

Shifting focus to the compound that follows.
For record `CN1CCN(c2cc3c(cc2F)c(=O)c(C(=O)O)cn3-c2ccncc2F)CC1.Cl` the listed MIC is 5

* * *

Observed MIC values for Streptococcus pneumoniae ATCC 6303 are listed in what follows.
Form entry: value (µg/mL) — number only.

Field MIC (entry `N[C@H]1CCN(c2cc3c(cc2F)c(=O)c(C(=O)O)cn3-c2ccncc2F)C1` ) reads 2.5

* * *

These compounds were tested on Shigella sonnei ATCC 25931; MIC is the recorded read-out.
State the value, then name its unit.

Known results for compounds:
{"Compound": "CC1CN(c2cc3c(cc2F)c(=O)c(C(=O)O)cn3-c2ccc(F)cn2)CCN1.Cl (stereo not drawn) [Example 19]", "Reported Result": "0.313 µg/mL"}
{"Compound": "CN1CCN(c2nc3c(cc2F)c(=O)c(C(=O)O)cn3-c2ccncc2F)CC1.Cl [Example 8]", "Reported Result": "0.625 µg/mL"}

Just so you know, measured MIC for CN1CCN(c2cc3c(cc2F)c(=O)c(C(=O)O)cn3-c2ccncc2F)CC1.Cl [Example 2] came out at 0.625 µg/mL

Measured MIC of Cl.N[C@H]1CCN(c2nc3c(cc2F)c(=O)c(C(=O)O)cn3-c2ccncc2F)C1 [Example 11] : 0.01 µg/mL

Per the record, CC1CN(c2cc3c(cc2F)c(=O)c(C(=O)O)cn3-c2ccc(F)cn2)CC(C)N1.Cl (stereo not drawn) [Example 20] has MIC of 0.313 µg/mL

The recorded MIC for entry CC1CN(c2nc3c(cc2F)c(=O)c(C(=O)O)cn3-c2ccc(F)cn2)CC(C)N1.Cl (stereo not drawn) [Example 15] equals 0.078 µg/mL

What the record says about Cl.O=C(O)c1cn(-c2ccc(F)cn2)c2c(F)c(N3CCNCC3)c(F)cc2c1=O [Example 23] : MIC is 0.078 µg/mL

// field: MIC; key: Cl.O=C(O)c1cn(-c2ccncc2F)c2cc(N3CCNCC3)c(F)cc2c1=O [Example 1] ; value = 0.625 µg/mL

compound Cc1c(F)c(N2CCNC(C)C2)cc2c1c(=O)c(C(=O)O)cn2-c1ccc(F)cn1.Cl (stereo not drawn) [Example 29] , MIC observed: 0.625 µg/mL

* * *

Parameter 'readout' = MIC; parameter 'system' = Streptococcus pneumoniae ATCC 6303.
Record the value in µg/mL, omitting the unit from your answer.

Here's what some known entries look like.
{"Molecule": "Cl.O=C(O)c1cn(-c2ccc(F)cn2)c2cc(N3CCNCC3)c(F)cc2c1=O", "Unit": "µg/mL", "MIC": 5}
{"Molecule": "Cl.NC1CCN(c2cc3c(cc2F)c(=O)c(C(=O)O)cn3-c2ccncc2F)C1 (centres unmarked)", "Unit": "µg/mL", "MIC": 2.5}
{"Molecule": "CC1CN(c2nc3c(cc2F)c(=O)c(C(=O)O)cn3-c2ccc(F)cn2)CCN1.Cl (centres unmarked)", "Unit": "µg/mL", "MIC": 5}
{"Molecule": "Cl.O=C(O)c1cn(-c2ccncc2F)c2cc(N3CCNCC3)c(F)cc2c1=O", "Unit": "µg/mL", "MIC": 2.5}
{"Molecule": "CC1CN(c2cc3c(cc2F)c(=O)c(C(=O)O)cn3-c2ccncc2F)CCN1.Cl (centres unmarked)", "Unit": "µg/mL", "MIC": 5}

MIC of Cc1c(F)c(N2CCNC(C)C2)cc2c1c(=O)c(C(=O)O)cn2-c1ccc(F)cn1.Cl (centres unmarked) , assay on Streptococcus pneumoniae ATCC 6303, is 10

The observed MIC for CC1CN(c2nc3c(cc2F)c(=O)c(C(=O)O)cn3-c2ccncc2F)CC(C)N1.Cl (centres unmarked) when tested with Streptococcus pneumoniae ATCC 6303 stands at 5

Response field MIC (Streptococcus pneumoniae ATCC 6303) for item `Cl.O=C(O)c1cn(-c2ccc(F)cn2)c2c(F)c(N3CCNCC3)c(F)cc2c1=O` : 2.5

Field MIC (system: Streptococcus pneumoniae ATCC 6303) for entry CC1CN(c2cc3c(cc2F)c(=O)c(C(=O)O)cn3-c2ccncc2F)CC(C)N1.Cl (centres unmarked) = 10

The recorded MIC with Streptococcus pneumoniae ATCC 6303 for `Cl.N[C@H]1CCN(c2cc3c(cc2F)c(=O)c(C(=O)O)cn3-c2ccc(F)cn2)C1` was 1.25
